system: Pseudomonas aeruginosa; experiment: Bactericidal activity against Pseudomonas aeruginosa PAO1 preincubated for 1 min before addition of growth medium measured after 40 to 48 hrs; format: functional
Mark each entry true if its MBC sits below 10 µg/mL, and false for all others.

Example entries and their recorded answers appear below.
- smiles: "CC(=O)O.CCCCCCCCNC1=NC(C)(C)NC(NCc2ccc(Cl)cc2)=N1"
  group label: "true"
- smiles: "CC(=O)O.CCCCCCCCCCNC1=NC(C)(C)NC(NCc2ccccc2)=N1"
  group label: "true"
- smiles: "CC(=O)O.CCCCCCCCCNC1=NC(C)(C)NC(Nc2ccccc2)=N1"
  group label: "true"
- smiles: "CC(=O)O.CCCCCCCCCCNC1=NC(C)(C)NC(NCc2ccc(OC)cc2)=N1"
  group label: "false"
- smiles: "CC(=O)O.CCCCCCCCNC1=NC(C)(C)NC(NCc2ccccc2Cl)=N1"
  group label: "true"
- smiles: "CC(=O)O.CCCCCCCCNC1=NC(C)(C)NC(NCCc2ccccc2)=N1"
  group label: "true"
- smiles: "CC(=O)O.CCCCCCCCCCCCNC1=NC(C)(C)NC(NCC)=N1"
  group label: "true"
- smiles: "CC(=O)O.CCCCCCCCNC1=NC(C)(C)NC(NCc2ccccc2)=N1"
  group label: "false"

Request: A record lists CC(=O)O.CCCCCCCCNC1=NC(C)(C)NC(NCCCC)=N1 . Is its MBC below 10 µg/mL?
Result: false

Request: Same for CC(=O)O.CCCCCCCCNC1=NC(C)(C)NC(Nc2ccccc2)=N1
Result: false

Numbers sourced from ChEMBL document CHEMBL1143313.
